Attribution: patent US20170224823A1

Test: Solubility in water
Type: physicochemical
Conditions: water
PARAMETER MEASURED: solubility

[[record]]
smiles_notation = "Cc1cc(C)c(Nc2ccnc(Nc3ccc(C#N)cc3)n2)c(C)c1"
parameter_measured = "solubility"
reported_value = "< 1 µg/mL"


---

Experiment: Raman microscopy to assess drug binding to poly(methylhydrosiloxane)
Assay type: physicochemical
Conditions: Raman microscopy (FIG. 12)
PARAMETER MEASURED: Covalent binding to the silicone polymer

[[record]]
molecule = "C#C[C@]1(O)CC[C@H]2[C@@H]3CCc4cc(O)ccc4[C@H]3CC[C@@]21C [EE, Ethynyl Estradiol]"
parameter_measured = "Covalent binding to the silicone polymer"
reported_value = "covalently bind"

[[record]]
molecule = "CC(=O)[C@H]1CC[C@H]2[C@@H]3CCC4=CC(=O)CC[C@]4(C)[C@H]3CC[C@]12C [PRG, Progesterone]"
parameter_measured = "Covalent binding to the silicone polymer"
reported_value = "covalently bind"

[[record]]
molecule = "C#C[C@]1(O)CC[C@H]2[C@@H]3CCC4=CC(=O)CC[C@@H]4[C@H]3CC[C@@]21CC [LNG]"
parameter_measured = "Covalent binding to the silicone polymer"
reported_value = "covalently bind"

